The origin of these recorded values is the supplement of paper PMC9732359.

# test.method.notes: protein stability index of a GFP-peptide fusion (yeast GPS) (PSI 1-4); higher = more stable; sorted into four equal gates, so the index is relative within each strain
# condition.details: san1∆
property: protein stability index
Would you mind answering with just the numeric figure?

> print(dat)
            monomer.sequence                 property  reading
1  AQSHQRFNAKVSMVKRA [CDC53]  protein stability index     1.56
2   TLPQPRLNKLNSNGIAM [SMD1]  protein stability index     1.72
3   KSSIEKDPSPEILVLYN [SIN4]  protein stability index     2.91
4  ESLREIPYGPDFDNIEF [SEC65]  protein stability index     2.92
5  GLNSDAEEVRNFALTTL [ECM29]  protein stability index     1.38
6   MPNDNKTPNRSSTPKFT [SIR4]  protein stability index        3

protein stability index for QQLAYDLSISALLGDKI [RPN9] is 2.47

protein stability index for HLEEYGYLIQVLLTFLQ [YCS4] is 1.21

protein stability index for DLSYNFNVHEVPRAALE [YMR129W/POM152] is 2.85

protein stability index for LQKRVIEHNLRVISEYY [RPN5] is 2.77

protein stability index for APVETKKKRFEIKKWTA [HRT1] is 2.93

protein stability index for WTDPNLKSSLADVLSIL [RPN1] is 2.94
